targetOrSystem: T1, human CDH6 (full-length, on cells) (human, UniProt P55285 54-790)
T1 construct: also called hCDH6; full-length hCDH6
T1 sequence: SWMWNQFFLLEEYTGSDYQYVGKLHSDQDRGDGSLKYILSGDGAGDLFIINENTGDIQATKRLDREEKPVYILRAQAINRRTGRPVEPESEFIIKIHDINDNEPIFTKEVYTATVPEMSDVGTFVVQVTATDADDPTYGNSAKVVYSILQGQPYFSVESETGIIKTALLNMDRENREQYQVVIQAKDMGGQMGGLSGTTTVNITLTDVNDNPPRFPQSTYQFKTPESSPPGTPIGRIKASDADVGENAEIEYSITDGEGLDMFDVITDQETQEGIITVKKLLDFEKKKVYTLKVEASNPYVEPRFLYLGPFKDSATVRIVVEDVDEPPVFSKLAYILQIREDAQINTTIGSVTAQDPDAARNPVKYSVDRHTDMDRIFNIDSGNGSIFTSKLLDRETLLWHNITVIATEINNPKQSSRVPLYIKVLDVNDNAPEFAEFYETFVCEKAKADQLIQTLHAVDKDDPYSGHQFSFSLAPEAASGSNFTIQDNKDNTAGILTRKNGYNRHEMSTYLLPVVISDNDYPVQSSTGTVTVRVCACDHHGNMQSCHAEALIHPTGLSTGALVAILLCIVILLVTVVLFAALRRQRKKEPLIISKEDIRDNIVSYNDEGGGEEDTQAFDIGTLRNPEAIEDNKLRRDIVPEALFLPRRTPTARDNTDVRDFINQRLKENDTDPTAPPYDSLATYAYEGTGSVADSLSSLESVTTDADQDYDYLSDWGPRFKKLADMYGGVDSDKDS
methodDescription: competition flow cytometry on 786-O/hCDH6 cells; competitor: Alexa 488-labeled H01L02 at 5 nM; unlabeled antibody varied [lower panel]
Each record here notes measured IC50 (read off the curve).

Check out these entries, answers already filled in.
binder | experimentalResult
H01L02 antibody (antibody, human IgG1, kappa, V domains shown, Humanized IgG1/kappa (hH01 + hL02); also called humanized hG019 antibody H01L02; labeled H01L02) VH: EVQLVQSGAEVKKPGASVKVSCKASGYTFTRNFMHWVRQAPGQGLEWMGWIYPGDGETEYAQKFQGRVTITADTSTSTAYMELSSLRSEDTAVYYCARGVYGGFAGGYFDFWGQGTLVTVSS VL: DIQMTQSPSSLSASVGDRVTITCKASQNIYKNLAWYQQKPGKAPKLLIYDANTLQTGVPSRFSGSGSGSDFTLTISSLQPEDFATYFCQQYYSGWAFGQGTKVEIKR | ~5 nM
H02L02 antibody (antibody, human IgG1, kappa, V domains shown, Humanized IgG1/kappa (hH02 + hL02); also called humanized hG019 antibody H02L02) VH: EVQLVQSGAEVKKPGASVKVSCKASGYTFTRNFMHWVRQAPGQGLEWMGWIYPGDGETEYNQKFQGRVTITADRSTSTAYMELSSLRSEDTAVYFCARGVYGGFAGGYFDFWGQGTLVTVSS VL: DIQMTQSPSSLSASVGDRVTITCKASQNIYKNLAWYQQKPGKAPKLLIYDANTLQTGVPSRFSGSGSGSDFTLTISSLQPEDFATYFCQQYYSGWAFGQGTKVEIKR | ~3 nM
H04L02 antibody (antibody, human IgG1, kappa, V domains shown, Humanized IgG1/kappa (hH04 + hL02); also called humanized hG019 antibody H04L02) VH: QVQLVQSGAEVKKPGASVKVSCKASGYTFTRNFMHWIRQAPGQGLEWMGWIYPGDGETEYAQKFQGRVTLTADRSTSTAYMELSSLRSEDTAVYYCARGVYGGFAGGYFDFWGQGTLVTVSS VL: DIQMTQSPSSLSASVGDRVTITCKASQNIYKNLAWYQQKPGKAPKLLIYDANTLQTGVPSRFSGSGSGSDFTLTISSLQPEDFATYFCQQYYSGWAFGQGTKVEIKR | ~10 nM

Moving on to the next binder.
Record summary for H02L03 antibody (antibody, human IgG1, kappa, V domains shown, Humanized IgG1/kappa (hH02 + hL03); also called humanized hG019 antibody H02L03) VH: EVQLVQSGAEVKKPGASVKVSCKASGYTFTRNFMHWVRQAPGQGLEWMGWIYPGDGETEYNQKFQGRVTITADRSTSTAYMELSSLRSEDTAVYFCARGVYGGFAGGYFDFWGQGTLVTVSS VL: DIQMTQSPSSLSASVGDRVTITCKASQNIYKNLAWYQQKLGEGPKLLIYDANTLQTGVPSRFSGSGSGTDFTLTISSLQPEDFATYYCQQYYSGWAFGQGTKVEIKR : reported IC50 (read off the curve) = ~10 nM
